Observed MIC, system Pichia guilliermondii ATCC 6260.
Numbered stars: 1 amine (or outer) side, 2 acyl side, 3 side chain; on linkers, the order of the positions; unused ones are H or OH. Bridge positions count the residues as written; N and C are the ends. Square brackets hold non-standard residues; d marks the D form. Peptide text beside a SMILES is read from it. * marks the point of attachment. Orn(4R-OH,5R-OCH2CH2NMe3+) = C[N+](C)(C)CCO[C@@H](N[*:3])[C@H](O)C[C@H](N[*:1])C(=O)[*:2]; pTerphenylCO(4''-OnC5H11) = CCCCCOc1ccc(-c2ccc(-c3ccc(C(=O)*)cc3)cc2)cc1; hTyr(3S-OH,4S-OH) = N[C@H](C(=O)O)[C@H](O)[C@@H](O)c1ccc(O)cc1; X2 = CCCCCOc1ccc(C#Cc2ccc3cc(C(=O)*)ccc3c2)c(F)c1F; Pro(3S-OH,4S-Me) = C[C@H]1CN[C@H](C(=O)O)[C@H]1O; Hyp = O=C(O)[C@@H]1C[C@@H](O)CN1
QUANTITY KIND: MIC (µg/mL)

compound="CC[C@H](C)C[C@H](C)CCCCCCCCC(=O)N[C@H]1C[C@@H](O)[C@@H](NCCN)NC(=O)[C@@H]2[C@@H](O)CCN2C(=O)[C@H]([C@H](O)CCN)NC(=O)[C@H]([C@H](O)[C@@H](O)c2ccc(O)cc2)NC(=O)[C@@H]2C[C@@H](O)CN2C(=O)[C@H]([C@@H](C)O)NC1=O [Caspofungin, reference compound]" quantity_kind=MIC units_text=µg/mL measured_value=0.12
compound="CCCCCOc1ccc(-c2ccc(-c3ccc(C(=O)N[C@H]4C[C@@H](O)[C@@H](OCC[N+](C)(C)C)NC(=O)[C@@H]5[C@@H](O)[C@@H](C)CN5C(=O)[C@H]([C@@H](C)O)NC(=O)[C@H]([C@H](O)[C@@H](O)c5ccc(O)cc5)NC(=O)[C@@H]5C[C@@H](O)CN5C(=O)[C@H]([C@@H](C)O)NC4=O)cc3)cc2)cc1 [Rezafungin, rezafungin, reference compound] ({pTerphenylCO(4''-OnC5H11)}-[Orn(4R-OH,5R-OCH2CH2NMe3+)]T[Hyp][hTyr(3S-OH,4S-OH)]T[Pro(3S-OH,4S-Me)]; lactam 1-C)" quantity_kind=MIC units_text=µg/mL measured_value=0.25
compound="CCCCCOc1ccc(C#Cc2ccc3cc(C(=O)N[C@H]4C[C@@H](O)[C@@H](OCC[N+](C)(C)C)NC(=O)[C@@H]5[C@@H](O)[C@@H](C)CN5C(=O)[C@H]([C@@H](C)O)NC(=O)[C@H]([C@H](O)[C@@H](O)c5ccc(O)cc5)NC(=O)[C@@H]5C[C@@H](O)CN5C(=O)[C@H]([C@@H](C)O)NC4=O)ccc3c2)c(F)c1F [Example 8] (X2-[Orn(4R-OH,5R-OCH2CH2NMe3+)]T[Hyp][hTyr(3S-OH,4S-OH)]T[Pro(3S-OH,4S-Me)]; lactam 1-C)" quantity_kind=MIC units_text=µg/mL measured_value=0.25

Origin of measurements: patent US20250011365A1
